src = ChEMBL document CHEMBL1137773

inhibition values by entry
- PROCEDURE_SUMMARY: Inhibition of p38 MAPK at 10 uM by ELISA
The answer is to be given in %; state only the numeric part.

>>> measured_number("Cc1onc(-c2c(Cl)cccc2Cl)c1C(=O)N1CCCCC1C (stereo unspecified)")
14
>>> measured_number("Cc1ccccc1Cc1nnc2sc(COc3ccccc3)nn12")
33

Query: inhibition lookup needed for COc1ccccc1NC1CC(=O)N(c2ccc(Cl)cc2)C1=O (stereo unspecified) , thanks.
Result: 20

Query: inhibition lookup needed for C=CCNc1sc(C(=O)c2ccc(F)cc2)c(N)c1C#N , thanks.
Result: 46

Query: inhibition lookup needed for Cc1cccc(CC(=O)N(c2ccc(Br)cc2)C2C=CS(=O)(=O)C2)c1 (stereo unspecified) , thanks.
Result: 2

Query: inhibition lookup needed for COc1cccc(OCc2nn3c(-c4ccccc4)nnc3s2)c1 , thanks.
Result: 11

Query: inhibition lookup needed for CC1Cc2nc(SCC(N)=O)n(-c3ccc(F)cc3)c(=O)c2S1 (stereo unspecified) , thanks.
Result: 4

Query: inhibition lookup needed for CC(C)(C)c1ccc(OCc2nn3c(Cc4ccccc4)nnc3s2)cc1 , thanks.
Result: 12

Query: inhibition lookup needed for Cc1ccccc1Cc1nnc2sc(COc3ccc(F)cc3)nn12 , thanks.
Result: 36

Query: inhibition lookup needed for Cc1occc1-c1nnc2sc(COc3ccc(F)cc3)nn12 , thanks.
Result: 21

Query: inhibition lookup needed for O=C(Nc1ccc(F)cc1)c1cccc(S(=O)(=O)Nc2ccccc2)c1 , thanks.
Result: 15
